Below: a set of entries, each annotated with reported pIC50.
# TARGET OR TEST SYSTEM: cyclophilin A (Homo sapiens)
# ASSAY TEXT: Cyclophilin A TR-FRET competitive binding assay
# TEST CONTEXT: IC50 ranges; competition with CsA-Cy5 for His-tagged CypA, two-hour incubation; read-out: TR-FRET
pIC50: −log10 of the molar value.

### Prompt For the record CC(C)[C@@H]1NC(=O)C(CO)(CO)/C=C/c2ccc3ccc(nc3c2)[C@@H](C)OC(=O)[C@@H]2CCCN(N2)C(=O)[C@H](C)NC1=O [Compound 76] , what value of pIC50 is listed for cyclophilin A (Homo sapiens)?
### Response > 7.00

### Prompt For the record CC(C)[C@@H]1NC(=O)[C@H](C)CCCCOc2ccc(F)c(c2)[C@@H](C)OC(=O)[C@@H]2CCCN(N2)C(=O)[C@H](C)NC1=O [Compound 36] , what value of pIC50 is listed for cyclophilin A (Homo sapiens)?
### Response > 7.00

### Prompt For the record CC(C)[C@@H]1NC(=O)C/C=C/c2cnc3ccc(cc3c2)[C@@H](C)OC(=O)[C@@H]2CCCN(N2)C(=O)[C@H](C)NC1=O [Compound 15] , what value of pIC50 is listed for cyclophilin A (Homo sapiens)?
### Response > 7.00

---

# TARGET OR TEST SYSTEM: cyclophilin A (Homo sapiens, UniProt P62937)
# Sequence (P62937 whole entry, species assumed): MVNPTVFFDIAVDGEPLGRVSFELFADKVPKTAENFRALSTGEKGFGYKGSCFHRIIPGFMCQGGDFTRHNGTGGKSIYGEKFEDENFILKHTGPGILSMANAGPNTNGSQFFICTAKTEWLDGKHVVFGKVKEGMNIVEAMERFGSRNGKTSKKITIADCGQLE
# ASSAY TEXT: Cyclophilin A TR-FRET competitive binding assay
# TEST CONTEXT: IC50 ranges; competition with CsA-Cy5 for His-tagged CypA, two-hour incubation; read-out: TR-FRET
pIC50: −log10 of the molar value.
MEASURED PARAMETER: pIC50

COC(=O)N1CCC2(/C=C/c3ccc4ccc(nc4c3)[C@@H](C)OC(=O)[C@@H]3CCCN(N3)C(=O)[C@H](C)NC(=O)[C@H](C(C)C)NC2=O)CC1 [Compound 132] = > 7.00

### Prompt Request the reported pIC50 associated with CC(C)[C@@H]1NC(=O)C(C)(C)COc2cc3cc(ccc3cn2)[C@@H](C)OC(=O)[C@H]2CCCN(N2)C(=O)[C@H](C)NC1=O [Compound 69]
### Response 5.00 to 6.00

### Prompt Request the reported pIC50 associated with CC(C)[C@@H]1NC(=O)CCCCCCc2cc3cc(ccc3cn2)[C@@H](C)OC(=O)[C@@H]2CCCN(N2)C(=O)[C@H](C)NC1=O [Compound 64]
### Response 6.00 to 7.00

### Prompt Request the reported pIC50 associated with COCCC1(C)/C=C/c2ccc3ccc(nc3c2)[C@@H](C)OC(=O)[C@@H]2CCCN(N2)C(=O)[C@H](C)NC(=O)[C@H](C(C)C)NC1=O (single isomer, unassigned) [Compound 102]
### Response > 7.00

### Prompt Request the reported pIC50 associated with CC(C)[C@@H]1NC(=O)C(C)(C)/C=C/c2ccc3ccc(nc3c2F)[C@@H](C)OC(=O)[C@@H]2CCCN(N2)C(=O)[C@H](C)NC1=O [Compound 170]
### Response > 7.00

### Prompt Request the reported pIC50 associated with COc1cc2nc3cc(ccc13)/C=C/C(C)(C)C(=O)N[C@@H](C(C)C)C(=O)N[C@@H](C)C(=O)N1CCC[C@H](N1)C(=O)O[C@@H]2C [Compound 139]
### Response > 7.00

---

Below: a set of entries, each annotated with reported IC50.
# TARGET OR TEST SYSTEM: UniProt P62937
# ASSAY TEXT: Cyclophilin A TR-FRET competitive binding assay
# TEST CONTEXT: IC50 ranges; competition with CsA-Cy5 for His-tagged CypA, two-hour incubation; read-out: TR-FRET

Here is how some molecules turned out for IC50.
CC(C)[C@@H]1NC(=O)[C@@H]([C@@H](C)O)/C=C/c2ccc3ccc(nc3c2)[C@@H](C)OC(=O)[C@@H]2CCCN(N2)C(=O)[C@H](C)NC1=O = < 100 nM
CC(C)[C@@H]1NC(=O)C(C)(C)/C=C/c2ccc3c(=O)[nH]c(nc3c2)[C@@H](C)OC(=O)C2CCCN(N2)C(=O)[C@@H](C)NC1=O (stereo partly drawn) = < 100 nM
CC(C)[C@@H]1NC(=O)C/C=C/c2ccc3ccc(cc3n2)[C@@H](C)OC(=O)[C@@H]2CCCN(N2)C(=O)[C@H](C)NC1=O = 101 to 1000 nM
CC(C)[C@@H]1NC(=O)C(C)(C)/C=C/c2ccc3ccc(nc3c2)[C@@H](C)NC(=O)[C@@H]2CCCN(N2)C(=O)[C@H](C)NC1=O = < 100 nM
CC(C)[C@H]1C(=O)N[C@@H](C)C(=O)N2CCC[C@H](N2)C(=O)N[C@H](C)c2ccc3ccc(cc3n2)/C=C/C2(C)CCN1C2=O = < 100 nM

Read the next record carefully.
### Prompt Request the reported IC50 associated with CC(C)[C@@H]1NC(=O)[C@]2(/C=C/c3ccc4ccc(nc4c3)[C@@H](C)OC(=O)[C@@H]3CCCN(N3)C(=O)[C@H](C)NC1=O)CC[C@@H](O)CC2
### Response < 100 nM

---

# Test system: HCV replicon (Replicon 1a)
# ASSAY TEXT: anti-HCV activity in Huh-7 cell line harboring a HCV replicon (Replicon 1a)
# Format: cell-based
# TEST CONTEXT: Hepatitis C virus, Huh-7, 72 h, read-out: Replicon 1a % inhibition at 1 μM
Below: a set of entries, each annotated with reported inhibition at 1 µM.
Use % as the unit, but write only the number.

### Prompt For the record CCN1CCC2(/C=C/c3ccc4ccc(nc4c3)[C@@H](C)OC(=O)[C@@H]3CCCN(N3)C(=O)[C@H](C)NC(=O)[C@H](C(C)C)NC2=O)CC1 , what value of inhibition at 1 µM is listed for HCV replicon (Replicon 1a)?
### Response 96

---

# Tested on: HCV replicon (Replicon 1a)
# ASSAY TEXT: anti-HCV activity in Huh-7 cell line harboring a HCV replicon (Replicon 1a)
# Assay type: cell-based
# TEST CONTEXT: Hepatitis C virus, Huh-7, 72 h, read-out: Replicon 1a % inhibition at 1 μM
Below: a set of entries, each annotated with reported inhibition at 1 µM.
Use % as the unit, but write only the number.

Here is how some compounds turned out for inhibition at 1 µM.
C[C@@H]1NC(=O)[C@H](CCn2ccnn2)NC(=O)C(C)(C)/C=C/c2cc3cc(ccc3cn2)[C@@H](C)OC(=O)[C@@H]2CCCN(N2)C1=O = 12
CO[C@@H]1/C=C/COc2cccc(c2)[C@@H](C(C)C)NC(=O)[C@@H]2CCCN(N2)C(=O)[C@H](C)NC(=O)[C@H](C(C)C)NC(=O)[C@@H]1C = 76
CC(C)[C@@H]1NC(=O)[C@H](C)/C=C/c2ccc3ccc(nc3c2)[C@@H](C)OC(=O)[C@@H]2CCCN(N2)C(=O)[C@H](C)NC1=O = 99

Read the next record carefully.
### Prompt Request the reported inhibition at 1 µM associated with CO[C@@H]1CC/C=C/c2ccc3c(c2)[C@@H](CC3)N(C)C(=O)[C@@H]2CCCN(N2)C(=O)[C@H](C)NC(=O)[C@H](C(C)C)NC(=O)[C@@H]1C
### Response 71
